Measured values drawn from PubChem BioAssay AID1159580 for this set.

- METHOD_DESCRIPTION: chemical genetic growth profiling, strain panel (AID 1159580);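 also: tested at 20 µM; growth read once vehicle control cultures reached saturation at 30 °C; 1 = growth at the plate median or of vehicle wells; lower values mean less growth of the strain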
- TEST_PARAMETERS: S. cerevisiae deletion strains, growth OD, locus YKL203C, strain TOR2
In all, about 5,500 compounds went through this assay and about 2,000 (36%) were called active. About 18% were inconclusive and are not listed. Rule as the data show it: active = normalized growth mostly below about 0.91 (no sharp cut-off); inconclusive = no clear call, values can overlap the other calls; inactive = mostly above about 0.92. The list shows a part of the results.
Pick from true (1) = active, false (0) = inactive when you respond.

stdin: Hi team, can someone confirm the assay call for CS(=O)(=O)c1sc(C(=O)Sc2ccc(Cl)cc2)c2c1C=CCC2 ?
stdout: true (1)

stdin: Hi team, can someone confirm the assay call for COc1cc(CC/C(C)=N\O)ccc1OCc1ccc(Cl)c(Cl)c1 ?
stdout: false (0)

stdin: Hi team, can someone confirm the assay call for CC1(C)c2ccccc2N(CCC(N)=O)C12C=Cc1c(ccc3ccccc13)O2 (stereo unspecified) ?
stdout: false (0)

stdin: Hi team, can someone confirm the assay call for COc1cc(CC/C(C)=N/O)ccc1OCc1ccc(Cl)cc1Cl ?
stdout: false (0)

stdin: Hi team, can someone confirm the assay call for CC1C/C(=N/Nc2ccc(Br)cc2)c2cc(Cl)ccc2S1(=O)=O (stereo unspecified) ?
stdout: false (0)

stdin: Hi team, can someone confirm the assay call for CC1C/C(=N/Nc2ccc(Br)cc2)c2cc(Cl)ccc2S1 (stereo unspecified) ?
stdout: true (1)

----------
- METHOD_DESCRIPTION: chemical genetic growth profiling, strain panel (AID 1159580)
- TEST_PARAMETERS: S. cerevisiae deletion strains, growth OD, locus YIL125W, strain kgd1
The campaign covered roughly 5,500 compounds. About 2,000 (36%) were called active. Roughly 18% stayed inconclusive and do not appear here. Rule as the data show it: active = normalized growth mostly below about 0.91 (no sharp cut-off); inconclusive = no clear call, values can overlap the other calls; inactive = mostly above about 0.92. The list shows a part of the results.
Pick from active, inactive when you respond.

stdin: Hi team, can someone confirm the assay call for CC(CN1c2ccccc2Sc2cccnc21)N(C)C (configuration not stated) ?
stdout: inactive

stdin: Hi team, can someone confirm the assay call for CC(CN1c2ccccc2Sc2ccccc21)N(C)C (configuration not stated) ?
stdout: inactive

stdin: Hi team, can someone confirm the assay call for O=c1cc(-c2ccccc2)oc2cc(O)c(O)c(O)c12 ?
stdout: active

stdin: Hi team, can someone confirm the assay call for CCCC(C(=O)OCCN(CC)CC)(c1ccccc1)c1ccccc1 ?
stdout: inactive

stdin: Hi team, can someone confirm the assay call for CCN(CC)CCOC(=O)C(c1ccccc1)c1ccccc1 ?
stdout: inactive

stdin: Hi team, can someone confirm the assay call for CC(CN(C)C)CN1c2ccccc2Sc2ccccc21 (configuration not stated) ?
stdout: inactive

stdin: Hi team, can someone confirm the assay call for CC(=O)N=c1sc(S(N)(=O)=O)nn1C ?
stdout: inactive

----------
- METHOD_DESCRIPTION: chemical genetic growth profiling, strain panel (AID 1159580);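 also: tested at 20 µM; growth read once vehicle control cultures reached saturation at 30 °C; 1 = growth at the plate median or of vehicle wells; lower values mean less growth of the strain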
- TEST_PARAMETERS: S. cerevisiae deletion strains, growth OD, locus YGL173C, strain kem1, stronger effect = lower value
Hit rate of the full screen: of about 5,500 compounds, about 2,000 (36%) were called active. Roughly 18% stayed inconclusive and do not appear here. The list shows a part of the results.
Provide the reported normalized growth of each item.
Respond using a number only.

stdin: Quick check: normalized growth of NC(N)=O ?
stdout: 1.02

stdin: Quick check: normalized growth of CN(C)CCOC(=O)C(c1ccccc1)C1(O)CCCC1 (stereo unspecified) ?
stdout: 0.989

stdin: Quick check: normalized growth of O=c1cc(-c2ccccc2)oc2cc(O)c(O)cc12 ?
stdout: 0.933

stdin: Quick check: normalized growth of N#C/C(=C\c1cccc(O)c1)C(=O)O ?
stdout: 1.01

stdin: Quick check: normalized growth of O=C(O)CCC(=O)Nc1ccc(S(=O)(=O)Nc2nccs2)cc1 ?
stdout: 0.987

stdin: Quick check: normalized growth of O=c1cc(-c2ccc(O)cc2)oc2cc(O)ccc12 ?
stdout: 0.972

stdin: Quick check: normalized growth of NCC(CC(=O)O)c1ccc(Cl)cc1 (stereo unspecified) ?
stdout: 1

stdin: Quick check: normalized growth of C[C@@H]1CC2C3C[C@H](F)C4=CC(=O)C=C[C@]4(C)[C@@]3(F)[C@@H](O)C[C@]2(C)[C@@]1(O)C(=O)COC(=O)C(C)(C)C (stereo partly specified) ?
stdout: 0.994

stdin: Quick check: normalized growth of O=c1cc(-c2cc(O)c(O)c(O)c2)oc2cc(O)cc(O)c12 ?
stdout: 0.967

stdin: Quick check: normalized growth of COc1c2ccccc2nc2occc12 ?
stdout: 0.941

stdin: Quick check: normalized growth of CCN(CC)C(C)CN1c2ccccc2Sc2ccccc21 (stereo unspecified) ?
stdout: 0.898

stdin: Quick check: normalized growth of Cc1nc2ccccn2c(=O)c1CCN1CCC(C(=O)c2ccc(F)cc2)CC1 ?
stdout: 0.992

stdin: Quick check: normalized growth of CC(=O)Nc1nnc(S(N)(=O)=O)s1 ?
stdout: 1.02

stdin: Quick check: normalized growth of O=c1cc(-c2ccccc2)oc2c(O)c(O)ccc12 ?
stdout: 0.975

stdin: Quick check: normalized growth of CNC(=O)Oc1ccc2c(c1)[C@]1(C)CCN(C)[C@@H]1N2C ?
stdout: 1.01

stdin: Quick check: normalized growth of CN1CCN(C2=Nc3ccccc3Oc3ccc(Cl)cc32)CC1 ?
stdout: 1.01

stdin: Quick check: normalized growth of CC(=O)N=c1sc(S(N)(=O)=O)nn1C ?
stdout: 1.01

stdin: Quick check: normalized growth of CCCC(C(=O)OCCN(CC)CC)(c1ccccc1)c1ccccc1 ?
stdout: 0.99

stdin: Quick check: normalized growth of CC(CN(C)C)CN1c2ccccc2Sc2ccccc21 (stereo unspecified) ?
stdout: 1.03

stdin: Quick check: normalized growth of C[C@H](N)[C@H](O)c1cccc(O)c1 ?
stdout: 1.01

stdin: Quick check: normalized growth of C[C@@H](N)[C@@H](O)c1ccccc1 ?
stdout: 0.993

stdin: Quick check: normalized growth of CN[C@@H]1[C@H](OC2[C@H](O[C@H]3[C@H](O)[C@@H](O)[C@H](N=C(N)N)[C@@H](O)[C@@H]3N=C(N)N)O[C@@H](C)[C@]2(O)C=O)O[C@@H](CO)[C@H](O)[C@H]1O (stereo partly specified) ?
stdout: 1.03

stdin: Quick check: normalized growth of CN(C)CCOC(=O)COc1ccc(Cl)cc1 ?
stdout: 0.975

stdin: Quick check: normalized growth of c1ccc2nc(N3CCNCC3)ccc2c1 ?
stdout: 1.01

stdin: Quick check: normalized growth of COC(=O)CCCOc1ccc(Cl)cc1Cl ?
stdout: 0.948

stdin: Quick check: normalized growth of O=C(O)c1ccccc1C(=O)Nc1ccc(S(=O)(=O)Nc2nccs2)cc1 ?
stdout: 0.959

stdin: Quick check: normalized growth of C=C[C@H]1CN2CC[C@H]1C[C@@H]2[C@H](O)c1ccnc2ccccc12 ?
stdout: 0.981

stdin: Quick check: normalized growth of CCCC(CCC)C(=O)O ?
stdout: 1.01

stdin: Quick check: normalized growth of CC1=C2[C@H]3OC(=O)[C@@H](C)[C@@H]3CC[C@@]2(C)C=CC1=O ?
stdout: 0.974

stdin: Quick check: normalized growth of c1ccc2c(c1)CN1CCCC1=N2 ?
stdout: 0.997

stdin: Quick check: normalized growth of CCC(=O)Nc1ccc(Cl)c(Cl)c1 ?
stdout: 0.978

----------
- METHOD_DESCRIPTION: chemical genetic growth profiling, strain panel (AID 1159580);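 also: tested at 20 µM; growth read once vehicle control cultures reached saturation at 30 °C; 1 = growth at the plate median or of vehicle wells; lower values mean less growth of the strain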
- TEST_PARAMETERS: S. cerevisiae strains, growth OD, strain wild type, stronger effect = lower value
Screen size: about 5,500 compounds; about 2,000 (36%) were called active. Not shown: some 18% with an inconclusive outcome. This is one part of the list.
Provide the reported normalized growth of each item.
Respond using a number only.

stdin: Quick check: normalized growth of CC1(C)C(=O)C=C[C@@]2(C)C1CC(=O)[C@@]1(C)C3=CC(=O)O[C@@H](c4ccoc4)[C@]3(C)CCC12 (stereo partly drawn) ?
stdout: 1.01

stdin: Quick check: normalized growth of O=[N+]([O-])c1cccc(-c2csc(Nc3ccccc3Cl)n2)c1 ?
stdout: 0.915

stdin: Quick check: normalized growth of Cc1cccc(Nc2ccncc2S(=O)(=O)NC(=O)NC(C)C)c1 ?
stdout: 1.04

----------
Provide the reported normalized growth of each item.
- METHOD_DESCRIPTION: chemical genetic growth profiling, strain panel (AID 1159580);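 also: tested at 20 µM; growth read once vehicle control cultures reached saturation at 30 °C; 1 = growth at the plate median or of vehicle wells; lower values mean less growth of the strain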
- TEST_PARAMETERS: S. cerevisiae deletion strains, growth OD, locus YOL147C, strain pex11, stronger effect = lower value
The whole screen tested about 5,500 compounds, of which about 2,000 (36%) were called active. Roughly 18% stayed inconclusive and do not appear here. The list shows a part of the results.
Respond using a number only.

stdin: Quick check: normalized growth of Cc1cc(=O)oc2c(O)c(O)ccc12 ?
stdout: 1.01

stdin: Quick check: normalized growth of O=c1cc(-c2cc(O)c(O)c(O)c2)oc2cc(O)cc(O)c12 ?
stdout: 1.01

stdin: Quick check: normalized growth of O=c1cc(-c2ccccc2)oc2cc(O)cc(O)c12 ?
stdout: 0.929

stdin: Quick check: normalized growth of CCCCC[C@H](CC(=O)NO)C(=O)N[C@H](C(=O)N1CCC[C@H]1CO)C(C)C ?
stdout: 1.02

stdin: Quick check: normalized growth of Cc1cc(C)cc(OCC2CNC(=O)O2)c1 (stereo unspecified) ?
stdout: 1.01

stdin: Quick check: normalized growth of O=c1cc(-c2ccccc2)oc2c(O)c(O)ccc12 ?
stdout: 0.977
